- Test system: MS2 coat protein
- testSummary: apparent KD of MS2 coat protein; designed switch direction (-1 OFF switch, 1 ON switch): -1; higher = weaker reporter binding
- assayContext: input ligand: FMN 200 uM
Use 50 nM as the dividing line for apparent KD of MS2 coat protein, with the line itself on the rule met side and lower values as rule not met.

- biopolymerSequence: "UUUCGGCAUGUAGGAUAUGGAUCCGAUUAGGAUUUAGAAGGACAUGAGGAUCACCCAUGUGCAUUUAAUUAGUCAUUACCGUUU [EXclNG1-LROPPY07] (Eterna round: R96, puzzle: Exclusion NG 1)"
  qualitativeLabel: "rule met"
- biopolymerSequence: "AGUACAAUCACGAAAGUGAUUGUACAAUAAGCUUGUGAAACAUGAGGAUCACCCAUGUCCUCAUAAGCUCGUCUUAU [Mat - Sensor v2 -ver2- JL mod - D69] (Eterna round: R96, puzzle: Sensor v2, turn-off variant 2)"
  qualitativeLabel: "rule not met"
- biopolymerSequence: "GUGUUGCGAGGAUAUAUAAGGAAAUGUUCUUAGGAUAUGGAACAUGAGGAUCACCCAUGUAGAAGGUGCAUAUC [JR_Ex2_Sub048] (Eterna round: R97, puzzle: Exclusion 2)"
  qualitativeLabel: "rule not met"
- biopolymerSequence: "CUGUGCACGCUGCGGUCCUACAUGAGGAUCACCCAUGUGGUCUGGUGGCGUGGGUCGCCGGACUUGGCUCGUCUUGA [salish99_S_TOV1_R5_023] (Eterna round: R97, puzzle: Sensor, turn-off variant 1)"
  qualitativeLabel: "rule not met"
- biopolymerSequence: "UACUUAUGAGUCAGGAUAUGUGAGGCGGAAGCGAUACAGAAGGGACAUGAGGAUCACCCAUGUUGGGUUCCUGU [Eternabot (Original) Solution 32] (Eterna round: R97, puzzle: Brourd's mod of Exclusion 4)"
  qualitativeLabel: "rule met"
- biopolymerSequence: "AAUUAAUUAAUUAAUUAAUACAUGAGGAUCACCCAUGUAAUUUAAGAUCCUUAUACAAGCUUUGAUCUCGUCUUAUA [Stov1/5-A1] (Eterna round: R97, puzzle: Sensor, turn-off variant 1)"
  qualitativeLabel: "rule met"
- biopolymerSequence: "UAAUUUUUAGUAAGGAUAUCGGUCCCAAGGGACAACGAGAAGGUACAUGAGGAUCACCCAUGUUACGAAAGAAU [Mod of Zala 10 - Jieux - Brourd's Mod of Exclusion 4] (Eterna round: R97, puzzle: Brourd's mod of Exclusion 4)"
  qualitativeLabel: "rule not met"
- biopolymerSequence: "UGAUCUAGCGGAGGAUAUACAUGAGGAUCACCCAUGUAGAUAAGUGUACCGUAGUGCACUAUUGUGUAGAAGGCCGCUAGAUCU [JL ENG2 3.64] (Eterna round: R96, puzzle: Exclusion NG 2)"
  qualitativeLabel: "rule not met"
- biopolymerSequence: "CAUGAUUGGCGAGGAUAUUGAUCUAGUUGGCGACGAGAAGGCGCCUGUCACAUGAGGAUCACCCAUGUGAAUCUGGUGGAUGAG [Ex NG1 #88] (Eterna round: R96, puzzle: Exclusion NG 1)"
  qualitativeLabel: "rule not met"

* * *

- System: K4 kissing-loop RNA reporter;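 also: bound reporter read as fluorescence of individual clusters on recovered sequencing chips by microscopy, with normalized cluster intensities fitted with a binding model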
- testSummary: apparent KD of K4 kissing-loop reporter; higher = weaker reporter binding
- assayContext: Eterna round: R107; input ligand: none
Rule: apparent KD of K4 kissing-loop reporter under 300 nM gives f, otherwise t.

- biopolymerSequence: "UGAUAGGACAGAAGGAGCGGAAGUGAUGUUUCCAAUGGAUAAAAGGUGUCAAAGACACCCUUCCAGGUAGGUCGCUGUCCUAUCU [ArgBX 17 #Palindromic #SwitchBubble #StaticStem]"
  qualitativeLabel: "f"
- biopolymerSequence: "CUGCCGUUUACAGAUACCAGACUAAUAACGGCAGCACAGAAUGUGAGUGAUGUUCGCAUAGUCCCUUGGCAGCUGUAUAACAGUA [Theo B Ex t3]"
  qualitativeLabel: "f"
- biopolymerSequence: "AUAUAAGUCGGAGGAUAUCCAGUGAUGUUAUGUUGUGAUGUUUAGUGAUGUUAGGCAUCAGUGAAGGGAGAAGGCCGUAAGUGAU [APPLE]"
  qualitativeLabel: "f"
- biopolymerSequence: "UACUAACGUUAAGGAUAUGCGUCGAUUACCGGUAAGUGAUGUUUAGCGCCCGGGCAACGGUGGGUCGCAGAAGGUAAACACAGUU [theeternabot_sameState_KL_FMN_B_19]"
  qualitativeLabel: "t"
- biopolymerSequence: "CAGCAUCUGAGUGGUAGCCAUUGAGAGAUGCAGGAUAUCUGGAAACAGAGAAGGGCAGUGAGUGAUGUUCACGGCUGGCUUGGUU"
  qualitativeLabel: "f"
- biopolymerSequence: "AUUUAUUCGUACUACUAGUGAUGUUAGUAACGAGGACCGGUACGGCCGCCACUCGAUUUGGCGAUUUUGUAUUUUUUAUUCUAUA [JR_SSTryptoA_Sub011]"
  qualitativeLabel: "t"
- biopolymerSequence: "CGCAGUGAUGUUGCUAUUAUUCUUGGUUAACGAGGACCGGUACGGCCGCCACUCGAUGUCUGUCUAGUCCAGUGUUUUUUUGAGU [whbob_EX_Tryp_A_t8]"
  qualitativeLabel: "t"
- biopolymerSequence: "GGAGUUACCUGGGAUACCAGUCGGAGUCCCAGAGCUCAGAGUGAUGUUCUGGGAUGUUUCGGCCCUUGGCAGCUCUGGGACUCCC [#2 Exclusion - Theophylline B Attempt #12 (HarryS)]"
  qualitativeLabel: "t"
- biopolymerSequence: "CGAGUCCUGAGGAGUGAUGUUCCUCGGCCACGAGGACCGGUACGGCCGCCACUCGUUACUCGGGCUUAGCAGCAAGCACUAAGCU [Acesote]"
  qualitativeLabel: "t"
- biopolymerSequence: "GCCGUACGCAUGGAUACCAGUCUACAUCGCAGUGAUGUUGCGUAGUUCAGAUUAACUGCCGACCCUUGGCAGCCAUGCGUACGGC"
  qualitativeLabel: "f"
- biopolymerSequence: "UGGAGUUGACGAAAAGUCAACUCCUGGGAAGGAGCGGACGAAAGUCCAGGUAGGUCGCCCACUACCAGUGAUGUUGGUACUCAAA"
  qualitativeLabel: "f"
- biopolymerSequence: "UGUAUGGACUGAAGGAGCGGUAGAUAAACUGAGUGAUGUUCGGCAAAUAAAGGCGCAAGCCACCAGGUAGGUCGCAGUCCAUACU [KL-SSArg B1]"
  qualitativeLabel: "f"
- biopolymerSequence: "GCAGGAUAGCGCGGUGCAGUGAUGUUGCACCGAGGACCGGUACGGCCGCCACUCGCUUAGAUAUCGUGUGAUGGGUAUGUCUAGA [theeternabot_exclusion_KL_Trp_A_8]"
  qualitativeLabel: "f"
- biopolymerSequence: "UGGAUAUAGUGAUGUUAUAUAGAGAUGGAUACCAGCUGAGAGAAUAGCCCUUGGCAGCCGAAAGAAGUAUCAUUAGAGAAGAAUG [ExTheophyl.Aj]"
  qualitativeLabel: "f"
- biopolymerSequence: "AGGAUGUAGUGAUGUUAUAUAAAAGGUAAACGAGGACCGGUACGGCCGCCACUCGAAGCGGCUGCUAAGAGGGAAAGAAGAGGAA [ExTryptoA.E]"
  qualitativeLabel: "t"
- biopolymerSequence: "GAAUGGAGUGAUGUUCCAUUAACGAUCCUACGAGGACCGGUACGGCCGCCACUCGUAUUGCAGUGAUGUUGCAACCAGCCGUACU [Exclusion Tryptophan A GF 9]"
  qualitativeLabel: "f"
- biopolymerSequence: "AAGAGGUAGGCGGCCGCCACUUGUUGUGAACACAUACGAGCCAGUGAUGUUGGUAUUGUGUGCGGAAGGACCGGGCCUACCUGAA [Exclusion - Tryptophan B (Freestyle 21)]"
  qualitativeLabel: "f"
- biopolymerSequence: "AAAUUUAAUAUAUUUAAUUAAUUAAGUGAUACCAGACAUUAAUAAGUCCCUUGGCAGCGCAAUGCAGUGAUGUUGCUUAUAAUAA [#18 K4 Theophylline A Same State]"
  qualitativeLabel: "f"
- biopolymerSequence: "AAGUAGUCCCUUGUUGUCAUCGAAGAUGAACGAGGACCGGUACGGCCGCCACUCGGAGUGAUGUUCCGAUGGCUGCAAAAUAAAA [MatMod 22 - Jieux - Exclusion - Tryptophan A]"
  qualitativeLabel: "f"
- biopolymerSequence: "GUGCGGUGGAGGUUACCGCUAUUCUGAGAAGGAGCGCAGAUGACUGCAGGUAGGUCGCUUAGAGCUUGCAGUGAUGUUGCAAGUU [Berienza]"
  qualitativeLabel: "f"
- biopolymerSequence: "AACCACUCGUUACAUCACUAUCGAGUGGAACGAGGACCGGUACGGCCGCCACUCGAAUAGAUGCAGUGAUGUUGCAUCUUGGAAU [KL-SSTryp-A (BrourdMod)4 #dotplot2 strengthened]"
  qualitativeLabel: "f"
- biopolymerSequence: "UGUGAGCUGUCGACAAAAGUCGACUAAAGCGAGGAUAUGACGAAAGUCAGAAGGCGUCAAUAAUGGAGUGAUGUUCCUGCUCACU [FmnA 9 G29]"
  qualitativeLabel: "t"
